Assay: antivirals protecting cells from dengue CPE – CPE readout, HTS (AID 540333)
Measurement Setup: Dengue virus CPE inhibition in host cells, at 20 µM
The campaign covered roughly 10,000 compounds. About 320 (3.2%) were called active. No stated cut-off is given here; in the data, active means CPE inhibition mostly above about 9.1% (no sharp cut-off); inactive means mostly below about 7.2%. Only a selection was taken, and actives are over-represented in it overall.
Reply using exactly one outcome from t for active, f for inactive

-- ask Answer briefly: the call reported for CC(C)N1C(=O)NC(=O)C2(Cc3cc([N+](=O)[O-])ccc3N(C)C2c2ccccc2)C1=O (stereo not drawn) in this assay.
-- reply f

-- ask Answer briefly: the call reported for CC(ON1CC1(C(F)(F)F)C(F)(F)F)(C(N)=O)C(N)=O (stereo not drawn) in this assay.
-- reply f

-- ask Answer briefly: the call reported for O=C(N/N=C/c1c(O)n(CCc2ccccc2)c(=O)[nH]c1=O)c1ccncc1 in this assay.
-- reply f

-- ask Answer briefly: the call reported for COC(=O)C1=C(c2cc3ccccc3o2)C[C@@H]2CC[C@H]1N2C in this assay.
-- reply f

-- ask Answer briefly: the call reported for N#CC(C#N)=Cc1ccc(-c2ccccc2F)o1 in this assay.
-- reply t

-- ask Answer briefly: the call reported for O=C1CN=C(c2ccccc2)c2cc(Br)ccc2N1Cc1cc(=O)n2ccccc2n1 in this assay.
-- reply f

-- ask Answer briefly: the call reported for COC(=O)C1=C(c2ccc(S(C)(=O)=O)cc2)C[C@@H]2CC[C@H]1N2C(=O)NCc1ccc(C(F)(F)F)cc1 in this assay.
-- reply f

-- ask Answer briefly: the call reported for Cc1ccc(CN2C(=O)CN=C(c3ccccc3)c3ccccc32)cc1 in this assay.
-- reply t
